What pIC50 was measured for each of the following?
target: Peptide deformylase (Pseudomonas aeruginosa (strain ATCC 15692 / PAO1 / 1C / PRS 101 / LMG12228)); assay: Inhibition of Pseudomonas aeruginosa peptide deformylase after 10 mins by fluorescence assay
Sequence (Q9I7A8 whole entry): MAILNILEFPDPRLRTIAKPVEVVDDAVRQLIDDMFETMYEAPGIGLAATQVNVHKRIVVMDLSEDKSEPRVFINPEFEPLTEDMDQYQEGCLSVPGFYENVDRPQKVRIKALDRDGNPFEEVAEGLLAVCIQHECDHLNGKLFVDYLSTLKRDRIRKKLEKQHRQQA
Answers are plain numbers, as −log10 of the molar value.

CCCC[C@H](CN(O)C=O)C(=O)[C@@H](NC(=O)c1cccc(F)c1)C(C)C; 7.37
CCCC[C@H](CN(O)C=O)C(=O)[C@@H](NC(=O)Nc1ccccc1)C(C)C; 7.31
CCCC[C@H](CN(O)C=O)C(=O)[C@@H](NC(=O)c1cccc(OC)c1)C(C)C; 7.66
CCCC[C@H](CN(O)C=O)C(=O)[C@H](NC(=O)OC(C)(C)C)C(C)(C)C; 6.22
CCCC[C@H](CN(O)C=O)C(=O)[C@@H](NC(=O)C(C)C)C(C)C; 7.22

Could I get pIC50 for every one of these entries?
1. CCCC[C@H](CN(O)C=O)C(=O)[C@@H](NC(=O)Nc1ccccc1F)C(C)C
2. CCCC[C@H](CN(O)C=O)C(=O)[C@@H]1CCCN1C(=O)OC(C)(C)C
3. CCCC[C@H](CN(O)C=O)C(=O)[C@H](C)NC(=O)OC(C)(C)C
4. CCCC[C@H](CN(O)C=O)C(=O)[C@@H](NC(=O)NC1CCCC1)C(C)C
5. CCCC[C@H](CN(O)C=O)C(=O)[C@@H](NC(=O)c1nccc2ccccc12)C(C)C
6. CCCC[C@H](CN(O)C=O)C(=O)[C@@H](NC(=O)Nc1ccccn1)C(C)C
7. CCCC[C@H](CN(O)C=O)C(=O)[C@@H](NC(=O)Nc1ccccc1OC)C(C)C
8. CCCC[C@H](CN(O)C=O)C(=O)[C@@H](NC(=O)c1ccccn1)C(C)C

[7.39, 6.77, 6.48, 8.00, 8.30, 7.37, 7.39, 6.93]

Could I get pIC50 for every one of these entries?
1. CCCC[C@H](CN(O)C=O)C(=O)[C@@H](NC(=O)OC(C)(C)C)C(C)C
2. CCCC[C@H](CN(O)C=O)C(=O)[C@@H](NC(=O)c1cccnc1)C(C)C

1: 6.74; 2: 7.14
